- system.name: full-length beta-Catenin (Uniprot ID P35222) (Homo sapiens, UniProt P35222)
- Construct: 10 nM full-length beta-Catenin (Uniprot ID P35222)
- Sequence (P35222 whole entry): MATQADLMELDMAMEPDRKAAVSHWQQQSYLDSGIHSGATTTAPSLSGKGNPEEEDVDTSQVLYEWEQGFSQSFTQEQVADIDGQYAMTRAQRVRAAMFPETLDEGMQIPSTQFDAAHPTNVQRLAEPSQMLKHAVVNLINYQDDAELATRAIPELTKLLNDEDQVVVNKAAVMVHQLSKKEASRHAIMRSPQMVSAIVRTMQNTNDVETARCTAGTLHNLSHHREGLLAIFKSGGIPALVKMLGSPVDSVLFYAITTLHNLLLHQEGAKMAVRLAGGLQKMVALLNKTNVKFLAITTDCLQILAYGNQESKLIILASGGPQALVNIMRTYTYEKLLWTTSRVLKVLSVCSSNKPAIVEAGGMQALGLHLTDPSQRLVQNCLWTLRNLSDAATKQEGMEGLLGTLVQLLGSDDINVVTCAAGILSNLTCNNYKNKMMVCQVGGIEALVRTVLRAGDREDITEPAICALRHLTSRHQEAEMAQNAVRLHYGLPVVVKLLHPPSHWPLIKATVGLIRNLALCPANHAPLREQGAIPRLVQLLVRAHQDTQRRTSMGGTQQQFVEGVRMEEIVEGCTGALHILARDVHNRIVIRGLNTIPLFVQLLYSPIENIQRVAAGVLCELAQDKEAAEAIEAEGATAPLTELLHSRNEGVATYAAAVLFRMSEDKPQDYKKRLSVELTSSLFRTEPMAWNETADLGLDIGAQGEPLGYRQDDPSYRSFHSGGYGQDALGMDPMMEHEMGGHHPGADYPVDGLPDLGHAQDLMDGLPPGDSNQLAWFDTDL
- measurement.protocol: Fluorescence polarization IC50 (beta-catenin / 5FAM-TCF4 10-53 competition)
- Format: binding
- condition.parameters: Table E2-1; read-out: beta-Catenin FP IC50
value.kind: pIC50
As a rule, pIC50 stands for the negative log10 of the concentration, concentration in M.

Consider the worked cases shown below.
1. CC[C@H](C)[C@H](NC(=O)[C@H](CC(=O)O)NC(=O)[C@H](C)NC(C)=O)C(=O)N[C@]1(C)CCN(C)C(=O)OCC=CCCCCC[C@@](C)(C(=O)N[C@@H](Cc2ccccc2)C(=O)N[C@@H](Cc2c[nH]c3ccccc23)C(=O)N[C@@H](Cc2c[nH]cn2)C(N)=O)NC(=O)[C@H](CCC(N)=O)NC(=O)[C@H](Cc2ccccc2)NC(=O)[C@H](C)NC(=O)[C@H](C)NC(=O)[C@H](CC(=O)O)NC(=O)[C@H](CC(=O)O)NC1=O = 5.37
2. CC(=O)N1CCC[C@]12CC=CCCCC1(CCCC=CCCCCCC[C@@](C)(C(=O)N[C@@H](Cc3ccccc3)C(=O)N[C@@H](Cc3c[nH]c4ccccc34)C(=O)N[C@@H](CCC(N)=O)C(N)=O)NC(=O)[C@H](C(C)C)NC(=O)[C@H](Cc3ccccc3)NC(=O)[C@H](C)NC(=O)[C@H](C)NC(=O)[C@H](CC(=O)O)NC(=O)[C@H](CC(=O)O)NC1=O)NC(=O)[C@H](C)NC(=O)[C@H](CC(=O)O)NC2=O (stereo partly drawn) = 5.50

Exercise: For the compound CC(=O)N1CCC[C@]12CC=CCCCC1(CCCC=CCCCCCC[C@@](C)(C(=O)N[C@@H](Cc3ccccc3)C(=O)N[C@@H](Cc3c[nH]c4ccccc34)C(=O)N[C@@H](CCC(N)=O)C(N)=O)NC(=O)[C@H](C(C)C)NC(=O)[C@H](Cc3cccc(Cl)c3)NC(=O)[C@H](C)NC(=O)[C@H](C)NC(=O)[C@H](CC(=O)O)NC(=O)[C@H](CC(=O)O)NC1=O)NC(=O)[C@H](C)NC(=O)[C@H](CC(=O)O)NC2=O (stereo partly drawn) , what pIC50 is on record?
Solution: 5.38

Values were extracted from patent US20240116985A1.
